ASSAY_SYSTEM: human cytidine deaminase (hCDA) (Homo sapiens)
Construct: purchased Sigma-Aldrich SRP6372; host or cells: E. coli
TEST_DETAILS: UV kinetic assay of hCDA-catalysed 2'-deoxycytidine deamination
Type: biochemical
SETUP_CONDITIONS: pH 4.7, 25 °C, substrate dC, competitive inhibition assumed; read-out: Ki
MEASUREMENT_NAME: Ki
Form entry: enter the amount, then its unit.

[ask] Quick one: give measured Ki for O=C1CP(=O)(O)C=CN1C1CC(O)C(CO)O1 (stereo not shown)
[reply] 560 µM

----------
ASSAY_SYSTEM: human cytidine deaminase (hCDA) (Homo sapiens, UniProt P32320)
Construct: purchased Sigma-Aldrich SRP6372; host or cells: E. coli
Sequence (P32320 whole entry): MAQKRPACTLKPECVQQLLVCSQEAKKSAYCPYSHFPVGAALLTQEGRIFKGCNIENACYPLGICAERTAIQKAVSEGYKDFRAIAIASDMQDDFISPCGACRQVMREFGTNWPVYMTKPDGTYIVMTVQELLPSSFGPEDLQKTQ
TEST_DETAILS: UV kinetic assay of hCDA-catalysed 2'-deoxycytidine deamination
Type: biochemical
SETUP_CONDITIONS: pH 7.4, 25 °C, substrate dC, competitive inhibition assumed; read-out: Ki
MEASUREMENT_NAME: pKi
Scale note: pKi = -log10(concentration in M).

[ask] For the molecule NP1(=O)C=CN(C2CC(O)C(CO)O2)C(=O)C1 (stereo not shown) , give its reported pKi.
[reply] 5.10

----------
ASSAY_SYSTEM: human cytidine deaminase (hCDA) (Homo sapiens, UniProt P32320)
Construct: purchased Sigma-Aldrich SRP6372; host or cells: E. coli
TEST_DETAILS: UV kinetic assay of hCDA-catalysed 2'-deoxycytidine deamination
Type: biochemical
SETUP_CONDITIONS: pH 6.0, 25 °C, substrate dC, competitive inhibition assumed; read-out: Ki
MEASUREMENT_NAME: pKi
Please report pKi as the negative decimal logarithm of the molar concentration, giving only the number.

[ask] Return value of pKi for input O=c1ncccn1[C@H]1C[C@H](O)[C@@H](CO)O1 [dZ (IIc), 2'-deoxyzebularine, reference compound] , no commentary.
[reply] 4.31
